# Test system: HCT116 colon cancer cells
# Test description: KSP Cellular Assay (percent of cells staining positive for Phos-Histone H3 / Phos-MPM2)
# Type: cell-based
# Reported conditions: Homo sapiens, HCT-116, 16 h, table of Example 1001; HCT116 cells, 16 hours with drug; read-out: EC50 (nM) Range
Measured endpoint: EC50

Request: Could you share which EC50 value was measured for CC(=O)N1N=C(c2cc(F)ccc2F)S[C@]12c1ccccc1OC[C@@H]2CCCO (single isomer, unassigned) ?
Result: > 1000 nM

Proceed to the following item.
Request: Could you share which EC50 value was measured for CC(=O)N1N=C(c2cc(F)ccc2F)S[C@]12c1ccccc1OC[C@H]2CCCO (single isomer, unassigned) ?
Result: ≤ 500 nM

---

Below, each entry is listed alongside its reported EC50.
# Tested on: HCT116 colon cancer cells
# Test description: KSP Cellular Assay (percent of cells staining positive for Phos-Histone H3 / Phos-MPM2)
# Format: cell-based
# Reported conditions: Homo sapiens, HCT-116, 16 h, table of Example 2401; HCT116 cells, 16 hours with drug; read-out: EC50 (nM) Range

Request: Could you share which EC50 value was measured for CC(=O)N1N=C(c2cc(F)ccc2F)S[C@@]12CCNc1ccccc12 (single isomer, unassigned) [compound 2401] ?
Result: ≤ 500 nM

Proceed to the following item.
Request: Could you share which EC50 value was measured for CC(=O)N1N=C(c2cc(F)ccc2F)S[C@]12CCNc1ccccc12 [compound 2402] ?
Result: > 1000 nM

---

# System: HCT116 colon cancer cells
# Test description: KSP Cellular Assay (percent of cells staining positive for Phos-Histone H3 / Phos-MPM2)
# Assay type: cell-based
# Reported conditions: Homo sapiens, HCT-116; table of Example 2001; HCT116 cells, 16 hours with drug; read-out: EC50 (nM) Range
Measured endpoint: EC50

Request: Could you share which EC50 value was measured for `NCC[C@@H]1COc2ccccc2[C@@]12SC(c1cc(F)ccc1F)=NN2C(=O)CF` ?
Result: ≤ 500 nM

Proceed to the following item.
Request: Could you share which EC50 value was measured for `NCC[C@H]1COc2ccccc2[C@]12SC(c1cc(F)ccc1F)=NN2C(=O)CF` ?
Result: ≤ 500 nM

---

# Tested on: HCT116 colon cancer cells
# Test description: KSP Cellular Assay (percent of cells staining positive for Phos-Histone H3 / Phos-MPM2)
# Assay type: cell-based
# Reported conditions: Table 401; HCT116 cells, 16 hours with drug; read-out: ED50 (nM) Range
Measured endpoint: EC50

Request: Could you share which EC50 value was measured for NC1CCC(C(=O)N2N=C(c3cc(F)ccc3F)SC23CCc2ccccc23)CC1 (stereo not shown) [compound 445] ?
Result: > 1000 nM

---

Below, each entry is listed alongside its reported EC50.
# Test system: HCT116 colon cancer cells
# Test description: KSP Cellular Assay (percent of cells staining positive for Phos-Histone H3 / Phos-MPM2)
# Format: cell-based
# Reported conditions: Homo sapiens, HCT-116, 16 h, table of Example 901; HCT116 cells, 16 hours with drug; read-out: EC50 (nM) Range

Request: Could you share which EC50 value was measured for CC(=O)N1N=C(c2cc(F)ccc2F)S[C@@]12c1ccccc1OC[C@@H]2CC#N [compound 902] ?
Result: ≤ 500 nM

Request: Could you share which EC50 value was measured for CC(=O)N1N=C(c2cc(F)ccc2F)S[C@]12c1ccccc1C[C@H]2CC#N [compound 906] ?
Result: ≤ 500 nM
